I'd appreciate it if you could supply remaining at 4 h values for the items below.
- methodSummary: Stability of the compound in plasma (unknown origin) assessed as compound remaining at 4 hrs
- Format: ADME, cell-free
- appliedConditions: read-out: Stability
The figure you give is taken to be in %; do not add the unit.

Q: State its remaining at 4 h for this compound: `C=CC(=O)N1CCC(CNc2ncnc(N)c2-c2ccc(Oc3ccccc3)cc2)CC1`
Ans: 81

Q: State its remaining at 4 h for this compound: `C=CS(=O)(=O)N1CCC(CNc2ncnc(N)c2-c2ccc(Oc3ccccc3)cc2)CC1`
Ans: 16

Q: State its remaining at 4 h for this compound: `Nc1ncnc(NCC2CCN(C(=O)CCl)CC2)c1-c1ccc(Oc2ccccc2)cc1`
Ans: 49

Q: State its remaining at 4 h for this compound: `C#CC(=O)N1CCC(CNc2ncnc(N)c2-c2ccc(Oc3ccccc3)cc2)CC1`
Ans: 34

====

- methodSummary: Intrinsic clearance in human liver microsomes at 1 uM in presence of NADPH measured up to 30 mins by LC-MS/MS analysis
- Type: ADME, Microsome
- appliedConditions: read-out: CLH
I'd appreciate it if you could supply log10(microsomal CLint at 1 µM) values for the items below.
Could you please treat all values as log10 of microsomal CLint at 1 µM in µL/min/mg?

Q: State its log10(microsomal CLint at 1 µM) for this compound: C=CC(=O)N[C@@H]1CCC[C@H](Nc2ncnc(N)c2-c2ccc(Oc3ccccc3)cc2)C1 (relative stereo)
Ans: 1.43

Q: State its log10(microsomal CLint at 1 µM) for this compound: C=CC(=O)N1CCC(Nc2ncnc(N)c2-c2ccc(Oc3ccccc3)cc2)C1 (single isomer, unassigned)
Ans: 1.89

Q: State its log10(microsomal CLint at 1 µM) for this compound: `C=CC(=O)Nc1cccc(Nc2ncnc(N)c2-c2ccc(Oc3ccccc3)cc2)c1`
Ans: 1.63

Q: State its log10(microsomal CLint at 1 µM) for this compound: `C=CC(=O)NC12CCC(Nc3ncnc(N)c3-c3ccc(Oc4ccccc4)cc3)(C1)C2`
Ans: 1.56

Q: State its log10(microsomal CLint at 1 µM) for this compound: `C=CC(=O)N1CCC(CNc2ncnc(N)c2-c2ccc(Oc3ccccc3)cc2)CC1`
Ans: 2.04

Q: State its log10(microsomal CLint at 1 µM) for this compound: `C=CC(=O)N1CCC(CNc2ncnc(N)c2-c2ccc(Oc3ccc(F)cc3)cc2)CC1`
Ans: 2.16

Q: State its log10(microsomal CLint at 1 µM) for this compound: `C=CC(=O)Nc1cccc(Oc2ncnc(N)c2-c2ccc(Oc3ccccc3)cc2)c1`
Ans: 2.44

Q: State its log10(microsomal CLint at 1 µM) for this compound: `C=CC(=O)N1CCC(CNc2ncnc(N)c2-c2ccc(Oc3ccc(C)cc3)cc2)CC1`
Ans: 2.16

Q: State its log10(microsomal CLint at 1 µM) for this compound: `C=CC(=O)N1CC2(CC(Nc3ncnc(N)c3-c3ccc(Oc4ccccc4)cc3)C2)C1`
Ans: 2.89

====

- methodSummary: Efflux ratio in human Caco2 cells
- Type: ADME, cell-based
- appliedConditions: Caco-2
I'd appreciate it if you could supply efflux ratio values for the items below.
Give only the figure.

Q: State its efflux ratio for this compound: `C=CC(=O)Nc1cccc(Nc2ncnc(N)c2-c2ccc(Oc3ccccc3)cc2)c1`
Ans: 1.6

Q: State its efflux ratio for this compound: `C=CC(=O)NC12CCC(Nc3ncnc(N)c3-c3ccc(Oc4ccccc4)cc3)(C1)C2`
Ans: 1.4

Q: State its efflux ratio for this compound: `C=CC(=O)Nc1cccc(Oc2ncnc(N)c2-c2ccc(Oc3ccccc3)cc2)c1`
Ans: 4.3

====

- methodSummary: Half-life in Wistar rat plasma at 2 mg/kg, iv or 10 mg/kg, po administered as suspension
- Type: ADME, organism-based
measuredProperty: half-life (h)
The figure you give is taken to be in h; do not add the unit.

Q: State its half-life for this compound: `C=CC(=O)N1CCC(CNc2ncnc(N)c2-c2ccc(Oc3ccccc3)cc2)CC1`
Ans: 1

====

- methodSummary: Kinetic solubility of the compound
- Type: physicochemical
- appliedConditions: read-out: Kinetic_solubility
measuredProperty: solubility kinetic (µM)
The figure you give is taken to be in µM; do not add the unit.

Q: State its solubility kinetic for this compound: C=CC(=O)N[C@@H]1CC[C@H](Nc2ncnc(N)c2-c2ccc(Oc3ccccc3)cc2)C1 (relative stereo)
Ans: 158

Q: State its solubility kinetic for this compound: `C=CC(=O)N1CC2(CC(Nc3ncnc(N)c3-c3ccc(Oc4ccccc4)cc3)C2)C1`
Ans: 153

Q: State its solubility kinetic for this compound: `C=CC(=O)NC12CCC(Nc3ncnc(N)c3-c3ccc(Oc4ccccc4)cc3)(C1)C2`
Ans: 110

Q: State its solubility kinetic for this compound: `C=CC(=O)Nc1cccc(Nc2ncnc(N)c2-c2ccc(Oc3ccccc3)cc2)c1`
Ans: 16

Q: State its solubility kinetic for this compound: `C=CC(=O)N1CCC(O)(CNc2ncnc(N)c2-c2ccc(Oc3ccccc3)cc2)CC1`
Ans: 169

====

- testSystem: Tyrosine-protein kinase BTK (Homo sapiens, UniProt Q06187)
- Sequence (Q06187 whole entry): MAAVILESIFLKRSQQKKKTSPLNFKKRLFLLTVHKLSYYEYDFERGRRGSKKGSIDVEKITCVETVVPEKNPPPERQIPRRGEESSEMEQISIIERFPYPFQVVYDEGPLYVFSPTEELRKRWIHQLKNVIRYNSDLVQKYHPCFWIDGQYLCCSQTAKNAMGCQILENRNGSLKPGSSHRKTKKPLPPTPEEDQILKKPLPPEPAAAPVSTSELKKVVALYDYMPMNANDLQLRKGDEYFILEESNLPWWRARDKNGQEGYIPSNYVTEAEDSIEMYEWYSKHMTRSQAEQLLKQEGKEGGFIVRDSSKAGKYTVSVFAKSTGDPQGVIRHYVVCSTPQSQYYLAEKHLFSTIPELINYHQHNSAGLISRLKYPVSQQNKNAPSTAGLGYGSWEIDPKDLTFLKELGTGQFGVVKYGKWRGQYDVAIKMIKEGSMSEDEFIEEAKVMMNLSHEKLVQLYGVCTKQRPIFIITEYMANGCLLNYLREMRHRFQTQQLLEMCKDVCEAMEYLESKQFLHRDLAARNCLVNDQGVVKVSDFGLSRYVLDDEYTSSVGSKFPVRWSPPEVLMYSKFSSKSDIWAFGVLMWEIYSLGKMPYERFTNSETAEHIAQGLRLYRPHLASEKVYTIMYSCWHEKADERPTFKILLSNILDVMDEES
- methodSummary: Inhibition of BTK in human PBMC cells assessed as reduction in anti-IgM-stimulated CD69 expression on B cells preincubated for 60 mins followed by goat F(ab')2 anti-human IgM stimulation and measured after overnight incubation by flow cytometry
- Assay type: cell-based
I'd appreciate it if you could supply IC50 values for the items below.
The figure you give is taken to be in nM; do not add the unit.

Q: Look up and report measured IC50 (Tyrosine-protein kinase BTK (Homo sapiens, UniProt Q06187)) for the following compound: `Nc1ncnc(NCC2CCN(C(=O)C3=CCC3)CC2)c1-c1ccc(Oc2ccccc2)cc1`
Ans: 290

Q: Look up and report measured IC50 (Tyrosine-protein kinase BTK (Homo sapiens, UniProt Q06187)) for the following compound: `C=CC(=O)NC12CCC(Nc3ncnc(N)c3-c3ccc(Oc4ccccc4)cc3)(C1)C2`
Ans: 70

Q: Look up and report measured IC50 (Tyrosine-protein kinase BTK (Homo sapiens, UniProt Q06187)) for the following compound: `C=CC(=O)Nc1cccc(Nc2ncnc(N)c2-c2ccc(Oc3ccccc3)cc2)c1`
Ans: 19

Q: Look up and report measured IC50 (Tyrosine-protein kinase BTK (Homo sapiens, UniProt Q06187)) for the following compound: `C=CC(=O)Nc1cccc(Oc2ncnc(N)c2-c2ccc(Oc3ccccc3)cc2)c1`
Ans: 9.9

====

- methodSummary: Kinetic solubility of the compound
- Assay type: physicochemical
- appliedConditions: read-out: Kinetic_solubility
I'd appreciate it if you could supply solubility kinetic values for the items below.
The figure you give is taken to be in µM; do not add the unit.

Q: State its solubility kinetic for this compound: `C=CC(=O)N[C@H]1CC[C@@H](Nc2ncnc(N)c2-c2ccc(Oc3ccccc3)cc2)CC1`
Ans: 154

Q: State its solubility kinetic for this compound: C=CC(=O)N1CCC(Nc2ncnc(N)c2-c2ccc(Oc3ccccc3)cc2)C1 (single isomer, unassigned)
Ans: 160

Q: State its solubility kinetic for this compound: C=CC(=O)N1CCC(CNc2ncnc(N)c2-c2ccc(Oc3ccccc3)cc2)CC1 [EVOBRUTINIB]
Ans: 60

Q: State its solubility kinetic for this compound: C=CC(=O)N[C@@H]1CCC[C@H](Nc2ncnc(N)c2-c2ccc(Oc3ccccc3)cc2)C1 (relative stereo)
Ans: 134

====

- methodSummary: Half-life in NMRI mouse plasma at 1 mg/kg, iv or 3 mg/kg, po administered as suspension
- Assay type: ADME, organism-based
measuredProperty: half-life
Answer format: number, then unit.

Q: State its half-life for this compound: `C=CC(=O)N1CCC(CNc2ncnc(N)c2-c2ccc(Oc3ccccc3)cc2)CC1`
Ans: 1 h

====

- methodSummary: Oral bioavailability in Wistar rat at 10 mg/kg
- Format: ADME, organism-based
- appliedConditions: in vivo
measuredProperty: bioavailability

Q: State its bioavailability for this compound: `C=CC(=O)N1CCC(CNc2ncnc(N)c2-c2ccc(Oc3ccccc3)cc2)CC1`
Ans: < 5%

====

- testSystem: hERG (KCNH2) (Homo sapiens)
- Sequence (Q12809 whole entry): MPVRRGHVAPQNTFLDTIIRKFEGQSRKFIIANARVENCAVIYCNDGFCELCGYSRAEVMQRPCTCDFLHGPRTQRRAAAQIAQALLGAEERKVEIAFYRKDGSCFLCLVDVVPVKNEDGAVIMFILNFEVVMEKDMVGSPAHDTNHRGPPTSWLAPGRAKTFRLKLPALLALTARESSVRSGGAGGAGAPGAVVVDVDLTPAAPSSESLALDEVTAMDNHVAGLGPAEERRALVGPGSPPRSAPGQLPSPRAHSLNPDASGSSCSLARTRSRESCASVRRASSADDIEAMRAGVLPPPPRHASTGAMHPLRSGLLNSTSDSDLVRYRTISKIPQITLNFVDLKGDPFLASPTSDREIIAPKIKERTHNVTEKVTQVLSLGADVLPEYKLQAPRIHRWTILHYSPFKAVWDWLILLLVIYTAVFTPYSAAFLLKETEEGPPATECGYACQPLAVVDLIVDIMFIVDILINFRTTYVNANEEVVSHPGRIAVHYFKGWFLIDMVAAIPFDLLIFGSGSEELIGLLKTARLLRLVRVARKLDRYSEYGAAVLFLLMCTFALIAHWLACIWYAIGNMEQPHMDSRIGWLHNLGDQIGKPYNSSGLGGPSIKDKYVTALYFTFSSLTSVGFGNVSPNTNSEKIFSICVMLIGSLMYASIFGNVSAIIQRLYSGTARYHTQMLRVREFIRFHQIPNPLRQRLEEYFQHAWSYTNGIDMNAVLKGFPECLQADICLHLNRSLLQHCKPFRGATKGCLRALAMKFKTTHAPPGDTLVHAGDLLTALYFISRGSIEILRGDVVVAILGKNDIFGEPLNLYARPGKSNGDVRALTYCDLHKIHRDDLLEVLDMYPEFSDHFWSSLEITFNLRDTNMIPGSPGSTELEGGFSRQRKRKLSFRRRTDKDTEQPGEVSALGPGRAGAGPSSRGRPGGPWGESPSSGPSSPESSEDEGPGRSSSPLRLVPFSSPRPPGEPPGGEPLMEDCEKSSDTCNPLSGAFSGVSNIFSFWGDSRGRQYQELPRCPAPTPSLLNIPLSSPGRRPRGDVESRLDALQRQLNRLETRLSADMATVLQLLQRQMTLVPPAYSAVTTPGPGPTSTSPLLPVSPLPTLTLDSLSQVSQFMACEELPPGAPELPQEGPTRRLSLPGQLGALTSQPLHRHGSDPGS
- methodSummary: Inhibition of human ERG expressed in HEK293 cells at 10 uM at -80 mV holding potential by […] relative to control
- Assay type: cell-based
- appliedConditions: HEK293 cells expressing human ERG
measuredProperty: inhibition at 10 µM (%)
The figure you give is taken to be in %; do not add the unit.

Q: State its inhibition at 10 µM for this molecule: C=CC(=O)N1CCCC(Nc2ncnc(N)c2-c2ccc(Oc3ccccc3)cc2)C1 (single isomer, unassigned)
Ans: 43

Q: State its inhibition at 10 µM for this molecule: `C=CC(=O)Nc1cccc(Oc2ncncc2-c2ccc(Oc3ccccc3)cc2)c1`
Ans: 46

Q: State its inhibition at 10 µM for this molecule: `C=CC(=O)Nc1cccc(Oc2ncnc(N)c2-c2ccc(Oc3ccccc3)cc2)c1`
Ans: 3

Q: State its inhibition at 10 µM for this molecule: C=CC(=O)N1CCC(Nc2ncnc(N)c2-c2ccc(Oc3ccccc3)cc2)C1 (single isomer, unassigned)
Ans: 40

Q: State its inhibition at 10 µM for this molecule: `C=CC(=O)N1CCC(O)(CNc2ncnc(N)c2-c2ccc(Oc3ccccc3)cc2)CC1`
Ans: 45

Q: State its inhibition at 10 µM for this molecule: `C=CC(=O)Nc1cccc(Oc2ccnc(N)c2-c2ccc(Oc3ccccc3)cc2)c1`
Ans: 81
